system: GM-CSF-induced pSTAT5 in human PBMC; assay: GM-CSF-induced pSTAT5 in human PBMC; type: cell-based; conditions: GM-CSF 10 ng/ml
measure: IC50

smiles_entry: [2H]C([2H])([2H])CC(=O)c1cnc(Nc2ccc(C(O)(C([2H])([2H])[2H])C([2H])([2H])[2H])c(F)n2)cc1Nc1ncccc1S(C)(=O)=O
IC50: 1 to 10 µM

Inquiry: Reported IC50 for "[2H]C([2H])([2H])CC(=O)c1cnc(Nc2ccc(C(C)(C)O)c(F)n2)cc1Nc1cccc(-c2ncn(C([2H])([2H])[2H])n2)c1OC" : what is it?
Reply text: 0.1 to 1 µM

Inquiry: Continue with "[2H]C([2H])([2H])CC(=O)c1cnc(NC(=O)C2CC2)cc1Nc1nccc(-c2ncn(C([2H])([2H])[2H])n2)c1OC"
Reply text: > 10 µM

====

assay: Pharmacokinetic study in Sprague Dawley rats; type: in vivo; settings: rat, plasma, iv, I.V. (1 mg/kg)
measure: clearance
# include the unit after the value

smiles_entry: [2H]C([2H])([2H])CC(=O)c1cnc(Nc2cccc(C#N)n2)cc1Nc1nccc(-c2ncn(C([2H])([2H])[2H])n2)c1OC
reported_result: 23.3 mL/min/kg
//
smiles_entry: [2H]C([2H])([2H])CC(=O)c1cnc(Nc2cccc(C#N)n2)cc1Nc1cccc(-c2ncn(C([2H])([2H])[2H])n2)c1OC
reported_result: 11.8 mL/min/kg

Inquiry: Reported clearance for "[2H]C([2H])([2H])CC(=O)c1cnc(NC(=O)C2CC2)cc1Nc1cccc(-c2ncn(C([2H])([2H])[2H])n2)c1OC" : what is it?
Reply text: 4.96 mL/min/kg

====

assay: Pharmacokinetic study in Beagle dogs; type: in vivo; conditions: dog, plasma, iv, I.V. (1 mg/kg), read-out: Vdss
Catalogue of Vd values
Numeric answer only, unit L/kg assumed.

Solved entries (count: 4):
smiles_entry: [2H]C([2H])([2H])CC(=O)c1cnc(Nc2ccc(C(C)(C)O)c(F)n2)cc1Nc1cccc(-c2ncn(C([2H])([2H])[2H])n2)c1OC
Vd (L/kg): 4.21
//
smiles_entry: [2H]C([2H])([2H])CC(=O)c1cnc(Nc2cccc(C#N)n2)cc1Nc1cccc(-c2ncn(C([2H])([2H])[2H])n2)c1OC
Vd (L/kg): 23.1
//
smiles_entry: [2H]C([2H])([2H])CC(=O)c1cnc(Nc2ccc(C(C)(C)O)c(F)n2)cc1Nc1nccc(-c2ncn(C([2H])([2H])[2H])n2)c1OC
Vd (L/kg): 7.41
//
smiles_entry: [2H]C([2H])([2H])CC(=O)c1cnc(Nc2cccc(C#N)n2)cc1Nc1nccc(-c2ncn(C([2H])([2H])[2H])n2)c1OC
Vd (L/kg): 5.62

Inquiry: Reported Vd for "[2H]C([2H])([2H])CC(=O)c1cnc(NC(=O)C2CC2)cc1Nc1cccc(-c2ncn(C([2H])([2H])[2H])n2)c1OC" : what is it?
Reply text: 3.04

====

test: Pharmacokinetic study in Sprague Dawley rats; type: in vivo; conditions: rat, plasma, Oral (5 mg/kg)
Catalogue of Tmax values

Solved entries (count: 3):
smiles_entry: [2H]C([2H])([2H])CC(=O)c1cnc(NC(=O)C2CC2)cc1Nc1nccc(-c2ncn(C([2H])([2H])[2H])n2)c1OC
measure: Tmax
reported_result: 1 h
--
smiles_entry: [2H]C([2H])([2H])CC(=O)c1cnc(Nc2ccc(C(C)(C)O)c(F)n2)cc1Nc1nccc(-c2ncn(C([2H])([2H])[2H])n2)c1OC
measure: Tmax
reported_result: 0.42 h
--
smiles_entry: [2H]C([2H])([2H])CC(=O)c1cnc(Nc2ccc(C(C)(C)O)c(F)n2)cc1Nc1cccc(-c2ncn(C([2H])([2H])[2H])n2)c1OC
measure: Tmax
reported_result: 4 h

Inquiry: Reported Tmax for "[2H]C([2H])([2H])CC(=O)c1cnc(NC(=O)C2CC2)cc1Nc1cccc(-c2ncn(C([2H])([2H])[2H])n2)c1OC" : what is it?
Reply text: 1.67 h

Inquiry: Continue with "[2H]C([2H])([2H])CC(=O)c1cnc(Nc2cccc(C#N)n2)cc1Nc1nccc(-c2ncn(C([2H])([2H])[2H])n2)c1OC"
Reply text: 1.33 h

Inquiry: Continue with "[2H]C([2H])([2H])CC(=O)c1cnc(Nc2cccc(C#N)n2)cc1Nc1cccc(-c2ncn(C([2H])([2H])[2H])n2)c1OC"
Reply text: 1 h

====

test: Pharmacokinetic study in Beagle dogs; format: in vivo; details: dog, plasma, Oral (2 mg/kg), read-out: C0 or Cmax (Cmax)
Catalogue of Cmax values
# include the unit after the value

Solved entries (count: 5):
smiles_entry: [2H]C([2H])([2H])CC(=O)c1cnc(Nc2ccc(C(C)(C)O)c(F)n2)cc1Nc1nccc(-c2ncn(C([2H])([2H])[2H])n2)c1OC
Cmax: 103 ng/mL

smiles_entry: [2H]C([2H])([2H])CC(=O)c1cnc(NC(=O)C2CC2)cc1Nc1nccc(-c2ncn(C([2H])([2H])[2H])n2)c1OC
Cmax: 247 ng/mL

smiles_entry: [2H]C([2H])([2H])CC(=O)c1cnc(Nc2cccc(C#N)n2)cc1Nc1cccc(-c2ncn(C([2H])([2H])[2H])n2)c1OC
Cmax: 68.8 ng/mL

smiles_entry: [2H]C([2H])([2H])CC(=O)c1cnc(Nc2ccc(C(C)(C)O)c(F)n2)cc1Nc1cccc(-c2ncn(C([2H])([2H])[2H])n2)c1OC
Cmax: 156 ng/mL

smiles_entry: [2H]C([2H])([2H])CC(=O)c1cnc(NC(=O)C2CC2)cc1Nc1cccc(-c2ncn(C([2H])([2H])[2H])n2)c1OC
Cmax: 285 ng/mL

Please turn your attention to the following entry.
Inquiry: Reported Cmax for "[2H]C([2H])([2H])CC(=O)c1cnc(Nc2cccc(C#N)n2)cc1Nc1nccc(-c2ncn(C([2H])([2H])[2H])n2)c1OC" : what is it?
Reply text: 23.4 ng/mL

====

experiment: Pharmacokinetic study in Beagle dogs; assay type: in vivo; conditions: dog, plasma, iv, I.V. (1 mg/kg)
Catalogue of log10(clearance) values
Reminder: these figures are log10 of reported clearance, in mL/min/kg before transformation.

Solved entries (count: 4):
compound: [2H]C([2H])([2H])CC(=O)c1cnc(Nc2ccc(C(C)(C)O)c(F)n2)cc1Nc1cccc(-c2ncn(C([2H])([2H])[2H])n2)c1OC [Example 202]
reported_result: 1.51
--
compound: [2H]C([2H])([2H])CC(=O)c1cnc(Nc2cccc(C#N)n2)cc1Nc1cccc(-c2ncn(C([2H])([2H])[2H])n2)c1OC [Example 198]
reported_result: 1.84
--
compound: [2H]C([2H])([2H])CC(=O)c1cnc(NC(=O)C2CC2)cc1Nc1cccc(-c2ncn(C([2H])([2H])[2H])n2)c1OC [Example 195]
reported_result: 0.73
--
compound: [2H]C([2H])([2H])CC(=O)c1cnc(Nc2cccc(C#N)n2)cc1Nc1nccc(-c2ncn(C([2H])([2H])[2H])n2)c1OC [Example 199]
reported_result: 1.80

Inquiry: Reported log10(clearance) for [2H]C([2H])([2H])CC(=O)c1cnc(Nc2ccc(C(C)(C)O)c(F)n2)cc1Nc1nccc(-c2ncn(C([2H])([2H])[2H])n2)c1OC [Example 201] : what is it?
Reply text: 1.47

====

assay: Pharmacokinetic study in cynomolgus monkeys; assay type: in vivo; details: cynomolgus monkey, plasma, Oral (2 mg/kg), NA: no detectable
Catalogue of half-life values
Numeric answer only, unit h assumed.

smiles_entry: [2H]C([2H])([2H])CC(=O)c1cnc(NC(=O)C2CC2)cc1Nc1cccc(-c2ncn(C([2H])([2H])[2H])n2)c1OC
half-life, h: 5.8
--
smiles_entry: [2H]C([2H])([2H])CC(=O)c1cnc(Nc2ccc(C(C)(C)O)c(F)n2)cc1Nc1nccc(-c2ncn(C([2H])([2H])[2H])n2)c1OC
half-life, h: 3.08
--
smiles_entry: [2H]C([2H])([2H])CC(=O)c1cnc(NC(=O)C2CC2)cc1Nc1nccc(-c2ncn(C([2H])([2H])[2H])n2)c1OC
half-life, h: 8.6

Please turn your attention to the following entry.
Inquiry: Reported half-life for "[2H]C([2H])([2H])CC(=O)c1cnc(Nc2cccc(C#N)n2)cc1Nc1cccc(-c2ncn(C([2H])([2H])[2H])n2)c1OC" : what is it?
Reply text: 1.28

====

test: Pharmacokinetic study in cynomolgus monkeys; format: in vivo; conditions: cynomolgus monkey, plasma, Oral (2 mg/kg), NA: no detectable
measure: AUC (ng·h/mL)
Numeric answer only, unit ng·h/mL assumed.

Solved entries (count: 3):
smiles_entry: [2H]C([2H])([2H])CC(=O)c1cnc(NC(=O)C2CC2)cc1Nc1nccc(-c2ncn(C([2H])([2H])[2H])n2)c1OC
reported_result: 4060

smiles_entry: [2H]C([2H])([2H])CC(=O)c1cnc(Nc2ccc(C(C)(C)O)c(F)n2)cc1Nc1nccc(-c2ncn(C([2H])([2H])[2H])n2)c1OC
reported_result: 67.9

smiles_entry: [2H]C([2H])([2H])CC(=O)c1cnc(NC(=O)C2CC2)cc1Nc1cccc(-c2ncn(C([2H])([2H])[2H])n2)c1OC
reported_result: 5420

Please turn your attention to the following entry.
Inquiry: Reported AUC for "[2H]C([2H])([2H])CC(=O)c1cnc(Nc2cccc(C#N)n2)cc1Nc1cccc(-c2ncn(C([2H])([2H])[2H])n2)c1OC" : what is it?
Reply text: 1230
